All figures here come from the supplement of paper PMC11208160.

# ASSAY PROTOCOL: recombinant barcode read abundance after kanamycin selection (control-corrected) (log10(CPM+1)); higher = more efficient recombination; sequences stand for … in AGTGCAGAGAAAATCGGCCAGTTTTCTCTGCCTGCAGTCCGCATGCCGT…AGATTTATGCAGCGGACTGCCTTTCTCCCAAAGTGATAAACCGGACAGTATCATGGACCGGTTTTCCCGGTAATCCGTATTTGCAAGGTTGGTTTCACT; site = the 11-nt target
In this section we review reported recombinant barcode read abundance (log10) values for a set of sequences.
PROPERTY NAME: recombinant barcode read abundance (log10)

In [3]: df
Out[3]:
                     macromolecule_sequence  recorded_number
0  TCGGTGACTTGGGTTCTAACCTGTTGCCT (site TCGGTGACTAG)             0.87
1  CCTAAGCCTTGGGTTCTAACCTGTTGCTG (site TACCCTTCTAC)            0.141
2  GAGTATTCTTGGGTTCTAACCTGTTGCCT (site GACTATTCTAG)           0.0264
3  TACCCTACTTGGGTTCTAACCTGTTGCAT (site TACACTACTAT)           0.0106
4  GGAACGTCTTGGGTTCTAACCTGTTGCTT (site GGAACCTCTAA)           0.0353
5  ATGAGGCCTTGGGTTCTAACCTGTTGCCT (site GTGAGGCCTAG)            0.173
6  GGGTCCTCTTGGGTTCTAACCTGTTGCCG (site GGGTCCTCTGG)            0.422
7  CTACACCCTTGGGTTCTAACCTGTTGCTT (site CTACAACCTAA)           0.0455
8  GTCTAATCTTGGGTTCTAACCTGTTGCAT (site ACAGGTCCTCG)           0.0725
9  GGAATGTCTTGGGTTCTAACCTGTTGCCT (site GCAATGTCTAG)           0.0847

----------
# ASSAY PROTOCOL: recombinant UMI read abundance after kanamycin selection (control-corrected) (log10(CPM+1)); higher = more efficient recombination; extreme values may be limits of the assay; sequences stand for … in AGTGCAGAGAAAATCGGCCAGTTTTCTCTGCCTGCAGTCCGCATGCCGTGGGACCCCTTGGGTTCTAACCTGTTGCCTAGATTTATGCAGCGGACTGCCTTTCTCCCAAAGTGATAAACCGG…AGGTTGGTTTCACT; site = the 11-nt donor
PROPERTY NAME: recombinant UMI read abundance (log10)

>>> df
                      macromolecule_sequence  recorded_number
 0  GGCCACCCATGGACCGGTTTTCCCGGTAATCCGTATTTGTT (site GGCGACCCTAA)           0.0156
 1  CTCGAAACATGGACCGGTTTTCCCGGTAATCCGTATTTGCA (site CTCGAAACTTG)             2.34
 2  CGGAAGACATGGACCGGTTTTCCCGGTAATCCGTATTTGCA (site CGGAAGACTTG)             1.73
 3  TCCACCGCATGGACCGGTTTTCCCGGTAATCCGTATTTGCT (site TCCACCGCTCG)           0.0171
 4  TACGATCCATGGACCGGTTTTCCCGGTAATCCGTATTTGCT (site TACGATCCTAG)             1.96
 5  AGCTCAGCATGGACCGGTTTTCCCGGTAATCCGTATTTGCG (site AGCTCAGCTCT)            0.277
 6  TGTCGTCCATGGACCGGTTTTCCCGGTAATCCGTATTTGAG (site TGTCGTCCTCT)           0.0062
 7  TAGCCTTCATGGACCGGTTTTCCCGGTAATCCGTATTTGGC (site TAGCCTTCTCC)           0.0163
 8  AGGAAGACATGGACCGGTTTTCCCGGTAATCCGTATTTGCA (site TGGAAGTCTTG)                0
 9  GGAATCTCATGGACCGGTTTTCCCGGTAATCCGTATTTGAA (site GGAATCTCTTT)             2.55
10  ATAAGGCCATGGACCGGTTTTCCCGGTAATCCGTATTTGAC (site ATAAGTCCTGT)                0
11  GGGGCACCATGGACCGGTTTTCCCGGTAATCCGTATTTGCC (site GGGGCACCTCG)           0.0076
12  GCTTGCCCATGGACCGGTTTTCCCGGTAATCCGTATTTGAA (site GCTTGCCCTCT)          0.00774
13  GAAGAATCATGGACCGGTTTTCCCGGTAATCCGTATTTGTT (site GAAGATTCTAA)                0
14  TTGCCGTCATGGACCGGTTTTCCCGGTAATCCGTATTTGGT (site TTGCCGTCTAC)            0.144
15  TAGAATGCATGGACCGGTTTTCCCGGTAATCCGTATTTGCA (site TAGAATGCTTG)             2.71
16  GAAGATCCATGGACCGGTTTTCCCGGTAATCCGTATTTGTT (site GAAGATCCTAA)             1.25
17  CGGGGGTCATGGACCGGTTTTCCCGGTAATCCGTATTTGCC (site CGGGTGTCTGG)              0.6

----------
In this section we review reported recombinant barcode read abundance (log10) values for a set of sequences.
# ASSAY PROTOCOL: recombinant barcode read abundance after kanamycin selection (control-corrected) (log10(CPM+1)); higher = more efficient recombination; sequences stand for … in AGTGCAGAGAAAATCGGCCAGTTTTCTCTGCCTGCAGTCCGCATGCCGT…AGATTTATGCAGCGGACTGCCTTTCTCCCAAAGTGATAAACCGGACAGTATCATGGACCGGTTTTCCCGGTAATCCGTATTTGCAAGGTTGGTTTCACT; site = the 11-nt target
PROPERTY NAME: recombinant barcode read abundance (log10)

In [3]: df
Out[3]:
                     macromolecule_sequence  recorded_number
0  GTCTTATCTTGGGTTCTAACCTGTTGCCT (site GTCTGATCTAG)             0.24
1  TAAGACCCTTGGGTTCTAACCTGTTGCCT (site TAAGACCCTAG)             2.33
2  CACAGACCTTGGGTTCTAACCTGTTGCCT (site GACAGACCTAG)            0.205
3  CTCCGAGCTTGGGTTCTAACCTGTTGCAC (site CTCCGAGCTGT)            0.201
4  GTGCGCTCTTGGGTTCTAACCTGTTGCCG (site GTGAGCCCTCG)            0.076
5  ACATTGCCTTGGGTTCTAACCTGTTGCCT (site ACATTGCCTAG)             0.44
6  CCGGGGTCTTGGGTTCTAACCTGTTGCCT (site TCGGGGTCTAG)           0.0922
7  TTCAAAACTTGGGTTCTAACCTGTTGCCT (site TTCAAAGCTAG)           0.0504
8  TGCATAGCTTGGGTTCTAACCTGTTGCCA (site TGCATAGCTTG)           0.0795
9  ATTGCTACTTGGGTTCTAACCTGTTGCCA (site GAACAGCCTAC)            0.143
